- SYSTEM_TESTED: Tyrosine-protein kinase ABL1 (Homo sapiens) + Ras and Rab interactor 1 (Homo sapiens) (UniProt P00519+Q13671)
- Sequence (P00519 whole entry, looked up): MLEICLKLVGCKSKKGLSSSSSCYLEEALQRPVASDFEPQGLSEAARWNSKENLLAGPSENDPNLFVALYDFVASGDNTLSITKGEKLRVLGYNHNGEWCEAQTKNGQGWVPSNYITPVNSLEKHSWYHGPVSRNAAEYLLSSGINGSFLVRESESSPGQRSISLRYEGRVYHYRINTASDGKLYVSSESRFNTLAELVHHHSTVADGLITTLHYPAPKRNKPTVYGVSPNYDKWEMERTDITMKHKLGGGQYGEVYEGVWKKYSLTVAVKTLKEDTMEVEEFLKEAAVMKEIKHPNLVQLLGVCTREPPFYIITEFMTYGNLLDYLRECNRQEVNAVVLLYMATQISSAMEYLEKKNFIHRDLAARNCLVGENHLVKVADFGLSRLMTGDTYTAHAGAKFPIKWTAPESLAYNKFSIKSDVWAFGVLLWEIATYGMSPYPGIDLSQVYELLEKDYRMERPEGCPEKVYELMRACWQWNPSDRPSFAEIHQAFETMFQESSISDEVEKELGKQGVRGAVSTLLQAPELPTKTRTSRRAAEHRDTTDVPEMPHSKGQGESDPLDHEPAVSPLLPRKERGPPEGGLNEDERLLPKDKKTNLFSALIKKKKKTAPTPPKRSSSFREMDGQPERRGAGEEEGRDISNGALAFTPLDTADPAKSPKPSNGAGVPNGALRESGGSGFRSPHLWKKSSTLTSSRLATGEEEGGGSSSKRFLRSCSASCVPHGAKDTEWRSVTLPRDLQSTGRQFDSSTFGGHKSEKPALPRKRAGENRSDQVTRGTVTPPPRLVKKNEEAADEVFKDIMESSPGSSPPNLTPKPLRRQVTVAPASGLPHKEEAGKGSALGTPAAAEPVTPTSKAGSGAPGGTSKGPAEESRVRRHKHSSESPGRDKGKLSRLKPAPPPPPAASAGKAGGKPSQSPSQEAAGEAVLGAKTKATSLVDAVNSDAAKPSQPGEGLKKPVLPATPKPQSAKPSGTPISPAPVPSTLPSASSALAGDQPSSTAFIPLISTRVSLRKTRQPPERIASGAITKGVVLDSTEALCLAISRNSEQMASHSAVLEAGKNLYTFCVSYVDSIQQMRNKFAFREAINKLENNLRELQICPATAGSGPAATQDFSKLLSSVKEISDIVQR
- Sequence (Q13671 whole entry, looked up): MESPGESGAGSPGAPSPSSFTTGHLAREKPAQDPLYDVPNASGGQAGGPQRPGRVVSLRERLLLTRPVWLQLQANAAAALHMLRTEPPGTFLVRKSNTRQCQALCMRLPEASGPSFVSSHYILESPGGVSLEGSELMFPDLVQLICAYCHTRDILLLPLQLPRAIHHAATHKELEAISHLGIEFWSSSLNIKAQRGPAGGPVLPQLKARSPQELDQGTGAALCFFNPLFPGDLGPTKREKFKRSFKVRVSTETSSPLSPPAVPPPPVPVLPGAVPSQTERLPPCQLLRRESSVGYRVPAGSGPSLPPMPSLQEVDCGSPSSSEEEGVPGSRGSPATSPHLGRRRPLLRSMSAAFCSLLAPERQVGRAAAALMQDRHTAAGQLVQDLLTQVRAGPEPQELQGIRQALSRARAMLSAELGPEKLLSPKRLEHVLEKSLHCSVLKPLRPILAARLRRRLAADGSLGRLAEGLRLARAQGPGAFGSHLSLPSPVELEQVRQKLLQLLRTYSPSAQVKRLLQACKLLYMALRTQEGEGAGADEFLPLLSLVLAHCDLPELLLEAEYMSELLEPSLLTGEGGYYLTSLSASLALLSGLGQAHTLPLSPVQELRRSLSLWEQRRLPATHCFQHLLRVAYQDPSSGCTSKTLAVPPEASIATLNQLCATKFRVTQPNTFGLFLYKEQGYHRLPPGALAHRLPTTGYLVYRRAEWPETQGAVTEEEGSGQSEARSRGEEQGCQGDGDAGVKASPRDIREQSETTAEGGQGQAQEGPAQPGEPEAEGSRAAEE
- EXPERIMENT_DESCRIPTION: Rin1-Abl binding inhibitor potency, late-stage follow-up, biochemical, TR-FRET, dose response (AID 602398)
Calls of active or inactive are those of the source. No rule for the calls is given here.
Entry note: the call must match one of active, inactive

>  <COMPOUND>
Cn1c(=O)c2c(nc(-n3ccnc3)n2Cc2ccc(Cl)cc2Cl)n(C)c1=O

>  <ANSWER_LABEL>
active

$$$$
>  <COMPOUND>
O=C(Cc1ccc(NC(=O)C2CCN(C(=O)C3CCCCC3)CC2)cc1)Nc1ccc(C(=O)N2CCOCC2)cc1

>  <ANSWER_LABEL>
inactive

$$$$
>  <COMPOUND>
COc1cccc(CSc2nnc(CSc3nc4nc(C)cc(C)n4n3)s2)c1

>  <ANSWER_LABEL>
active

$$$$
>  <COMPOUND>
CCOC(=O)N1CCC(NC(=O)CCc2nc(C3=CCN(C)CC3)no2)CC1

>  <ANSWER_LABEL>
active

$$$$
>  <COMPOUND>
CSc1ccccc1OCc1cc(C(=O)N2CCNC(=O)C2)no1

>  <ANSWER_LABEL>
active

$$$$

Ask | Hello, I am checking results. What call was entered for COc1ccc2oc(C(=O)NCC(c3ccco3)N(C)C)c(C)c2c1 (stereo not drawn) ?
Reply | active

----------
- SYSTEM_TESTED: Tyrosine-protein kinase ABL1 (Homo sapiens) + Ras and Rab interactor 1 (Homo sapiens) (UniProt P00519+Q13671)
- EXPERIMENT_DESCRIPTION: Rin1-Abl binding inhibitor potency, late-stage follow-up, biochemical, TR-FRET, dose response (AID 602398)
The source made the active and inactive calls. No rule for the calls is given here.
Entry note: the call must match one of TRUE (active), FALSE (inactive)

>  <MOLECULE>
Cc1c(C(=O)NCC(c2ccco2)N(C)C)oc2c(Cl)cccc12 (configuration not stated)

>  <ANSWER_LABEL>
TRUE

$$$$
>  <MOLECULE>
CC(=O)Nc1ccc(NC(=O)C2CCN(C(=O)c3cccs3)CC2)cc1

>  <ANSWER_LABEL>
TRUE

$$$$
>  <MOLECULE>
O=C(Cc1ccc(NC(=O)C2CCN(C(=O)C3CCCC3)CC2)cc1)Nc1ccc(C(=O)N2CCOCC2)cc1

>  <ANSWER_LABEL>
TRUE

$$$$
>  <MOLECULE>
CN(Cc1c(F)cccc1Cl)C(=O)CNC(=O)c1ccc2c(c1)OCO2

>  <ANSWER_LABEL>
TRUE

$$$$
>  <MOLECULE>
CCOC(=O)N1CCN(C(=O)Nc2ccc(NC(=O)N3CCN(C(=O)OCC)CC3)cc2)CC1

>  <ANSWER_LABEL>
FALSE

$$$$
>  <MOLECULE>
COc1ccc(CCNc2cc(=O)[nH]c(N)n2)cc1

>  <ANSWER_LABEL>
TRUE

$$$$
>  <MOLECULE>
CN(C(=O)c1ccc(NC(=O)Cc2ccc(NC(=O)C3CCN(C(=O)c4ccccc4)CC3)cc2)cc1)C1CC1

>  <ANSWER_LABEL>
TRUE

$$$$
>  <MOLECULE>
CN(CCc1ccccc1)C(=O)c1ccc(NC(=O)Cc2ccc(NC(=O)C3CCN(C(=O)c4ccccc4)CC3)cc2)cc1

>  <ANSWER_LABEL>
TRUE

$$$$

Ask | Hello, I am checking results. What call was entered for N#Cc1ccccc1Sc1ccccc1C(=O)NCC(c1ccco1)N1CCCC1 (configuration not stated) ?
Reply | TRUE

Ask | Hello, I am checking results. What call was entered for CN(CCc1ccccc1)C(=O)c1ccc(NC(=O)Cc2ccc(NC(=O)C3CCN(C(=O)C4CCCC4)CC3)cc2)cc1 ?
Reply | TRUE

Ask | Hello, I am checking results. What call was entered for O=C(Cc1ccc(NC(=O)C2CCN(C(=O)c3ccccc3)CC2)cc1)Nc1ccc(C(=O)N2CCOCC2)cc1 ?
Reply | FALSE

Ask | Hello, I am checking results. What call was entered for O=c1cc(OCc2ccccc2)cc[nH]1 ?
Reply | TRUE
